target: Sigma non-opioid intracellular receptor 1 (Homo sapiens, UniProt Q99720)
Sequence (Q99720 whole entry): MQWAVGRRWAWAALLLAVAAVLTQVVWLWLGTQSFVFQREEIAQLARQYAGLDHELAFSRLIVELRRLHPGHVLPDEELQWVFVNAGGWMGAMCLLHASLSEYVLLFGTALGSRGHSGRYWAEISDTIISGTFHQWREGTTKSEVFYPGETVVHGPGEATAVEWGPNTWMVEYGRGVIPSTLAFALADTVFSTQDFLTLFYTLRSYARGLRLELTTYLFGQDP
reported.endpoint: pKi
Please treat pKi as minus the base-10 logarithm of the molar concentration.

Tested on Sigma non-opioid intracellular receptor 1 (Homo sapiens, UniProt Q99720), the item COc1cccc2c1CC[C@H](N1CCCC1)[C@H]2N(C)C(=O)Cc1ccc(Cl)c(Cl)c1 showed pKi equal to 5.29

These entries and their values trace back to ChEMBL document CHEMBL1126435.
